Each recorded value in this set is attributed to patent US8685969B2.

In this section, each of the compounds is paired with its reported IC50.
tgt: human recombinant Btk (Homo sapiens, UniProt Q06187)
Sequence (Q06187 whole entry): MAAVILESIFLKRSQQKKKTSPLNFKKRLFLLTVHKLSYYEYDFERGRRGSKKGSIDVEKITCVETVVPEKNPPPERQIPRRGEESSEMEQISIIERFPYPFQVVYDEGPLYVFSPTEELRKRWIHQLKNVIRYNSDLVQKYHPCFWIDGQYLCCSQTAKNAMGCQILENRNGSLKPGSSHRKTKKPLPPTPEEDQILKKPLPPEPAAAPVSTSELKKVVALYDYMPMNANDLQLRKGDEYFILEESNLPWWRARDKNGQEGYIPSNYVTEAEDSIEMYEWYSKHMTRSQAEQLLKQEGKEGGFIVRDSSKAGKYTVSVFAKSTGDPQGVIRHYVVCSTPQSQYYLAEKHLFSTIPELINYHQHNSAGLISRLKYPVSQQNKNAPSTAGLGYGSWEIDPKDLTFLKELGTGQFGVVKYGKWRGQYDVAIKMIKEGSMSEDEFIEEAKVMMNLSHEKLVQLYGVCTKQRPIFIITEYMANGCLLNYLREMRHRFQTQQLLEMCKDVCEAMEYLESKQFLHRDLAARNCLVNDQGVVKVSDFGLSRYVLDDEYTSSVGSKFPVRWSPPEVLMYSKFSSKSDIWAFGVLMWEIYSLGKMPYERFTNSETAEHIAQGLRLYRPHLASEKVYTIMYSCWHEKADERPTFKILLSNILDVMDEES
experiment-description: Human Recombinant Btk Enzyme Assay
condition-parameters: human recombinant Btk 1 nM, ATP 20 μM, 60 min room temperature; read-out: IC50 for Inhibition of Btk
Number plus unit, in that order.

Some compounds with known IC50 results, for comparison:
{"columns": ["compound", "IC50"],
 "data": [
  ["COc1ccc2c(c1)C(=O)N(c1cccc(-c3nnc(C(N)=O)c4[nH]c5cc(C(C)(C)O)ccc5c34)c1C)C2", "3 nM"],
  ["COc1ccc2c(c1)C(=O)N(c1cccc(-c3nnc(C(N)=O)c4[nH]c5cc(C(C)=O)ccc5c34)c1C)C2", "57 nM"],
  ["Cc1c(NC(=O)c2ccc(F)cc2)cccc1-c1cnc(C(N)=O)c2[nH]c3cc(N4CCOCC4)ccc3c12", "8 nM"],
  ["Cc1c(NC(=O)N2Cc3ccc(F)cc3C2)cccc1-c1cnc(C(N)=O)c2[nH]c3cc(N4CCOCC4)ccc3c12", "3 nM"],
  ["COCCOc1ccc2c(c1)[nH]c1c(C(N)=O)nc(C)c(-c3cccc(-n4cnc5ccccc5c4=O)c3C)c12", "14 nM"],
  ["Cc1c(-c2cnc(C(N)=O)c3[nH]c4cc(C(C)O)ccc4c23)cccc1-n1cnc2ccccc2c1=O (stereo not shown)", "3 nM"]
]}

Ask: What value of IC50 has been reported for the following compound? "Cc1c(-c2nnc(C(N)=O)c3[nH]c4cc(OCCO)ccc4c23)cccc1-n1cnc2ccccc2c1=O"
Result: 7 nM

---

tgt: human recombinant Btk (Homo sapiens)
experiment-description: Human Recombinant Btk Enzyme Assay
condition-parameters: human recombinant Btk 1 nM, ATP 20 μM, 60 min room temperature; read-out: IC50 for Inhibition of Btk
endpoint-label: log10 IC50 (log10 of the value in nM)
The common logarithm of IC50 in nM is what is listed.

Some compounds with known log10 IC50 results, for comparison:
{"columns": ["structure-smiles", "log10 IC50"],
 "data": [
  ["Cc1c(-c2nnc(C(N)=O)c3[nH]c4cc(OCCO)ccc4c23)cccc1N1Cc2ccc(Cl)cc2C1=O", 0.90],
  ["NC(=O)c1ncc(-c2ccccc2F)c2c1[nH]c1ccc(F)cc12", 1.81],
  ["COCCOc1ccc2c(c1)[nH]c1c(C(N)=O)nnc(-c3cccc(N4Cc5ccc(Cl)cc5C4=O)c3C)c12", 0.85],
  ["Cc1ccc(C(=O)Nc2cccc(-c3cnc(C(N)=O)c4[nH]c5cc(N6CCOCC6)ccc5c34)c2F)nc1", 1.93],
  ["CN(C)c1ccc(C(=O)Nc2cccc(-c3cnc(C(N)=O)c4[nH]c5cc(C(=O)N6CCOCC6)ccc5c34)c2F)cc1", 1.63],
  ["COc1ccc2[nH]c3c(C(N)=O)ncc(-c4ccccc4F)c3c2c1", 1.51]
]}

Ask: What value of log10 IC50 has been reported for the following compound? "COCCOc1ccc2c(c1)[nH]c1c(C(N)=O)ncc(-c3cccc(N4Cc5ccc(Cl)cc5C4=O)c3C)c12"
Result: 0.30

Ask: What value of log10 IC50 has been reported for the following compound? "Cc1c(-c2ncc(C(N)=O)c3[nH]c4cc(C(C)(C)O)ccc4c23)cccc1N1Cc2ccc(F)cc2C1=O"
Result: 0.78

Ask: What value of log10 IC50 has been reported for the following compound? "COCCOc1ccc2c(c1)[nH]c1c(C(N)=O)ncc(-c3cccc(-n4cnc5c(F)cccc5c4=O)c3C)c12"
Result: 0.85

Ask: What value of log10 IC50 has been reported for the following compound? "Cc1c(-c2cnc(C(N)=O)c3[nH]c4cc(OCCO)ccc4c23)cccc1-n1cnc2ccccc2c1=O"
Result: 0.48

Ask: What value of log10 IC50 has been reported for the following compound? "Cc1c(-c2ccc(C(N)=O)c3[nH]c4c(c23)CNCC4)cccc1-n1cnc2ccccc2c1=O"
Result: 2.72

Ask: What value of log10 IC50 has been reported for the following compound? "Cc1c(-c2ccc(C(N)=O)c3[nH]c4cnc(C(C)(C)O)cc4c23)cccc1-n1cnc2cccc(F)c2c1=O"
Result: 1.15

Ask: What value of log10 IC50 has been reported for the following compound? "Cc1c(-c2ccc(C(N)=O)c3[nH]c4cc(C(=O)N(C)C)ncc4c23)cccc1-n1cnc2ccccc2c1=O"
Result: 1.36
